assayed.system: Neurogenic locus notch homolog protein 3 (Homo sapiens)
run.description: NOTCH3 binders on small-molecule microarray, primary screen, biochemical, 635/667 nm fluorescence (AID 1096)
stated.conditions: NOTCH3 binding, 635 nm fluorescence, higher = more signal
measurement.kind: composite z-score
Write no unit; give the number alone.

In the examples that follow, each entry is paired with its recorded composite z-score.
>  <compound>
CCOC(=O)C1=CC[C@@H](c2ccccc2)N(S(=O)(=O)c2ccc(C)cc2)[C@H]1c1cccc(OC)c1

>  <composite z-score>
0.618

$$$$
>  <compound>
CC=CC(O)C1C=CC2C(=O)NC(=O)C2N1Nc1ccccn1 (stereo unspecified)

>  <composite z-score>
0.542

$$$$
>  <compound>
COCC(=C=CC[C@H](O)c1cccc(OCCO)c1)C[C@H](O)COCc1ccccc1

>  <composite z-score>
0.237

$$$$
>  <compound>
COCCOC(=O)N1C(=O)[C@@]2(c3cc(C#CCCO)ccc31)[C@H](c1ccccc1OCCO)N1[C@H](c3ccccc3)[C@H](c3ccccc3)OC(=O)[C@H]1[C@@H]2C(=O)N1CCCCCCC1

>  <composite z-score>
1.05

$$$$
>  <compound>
C=C[C@@H](OC)[C@H](OC(=O)Nc1ccc(SC)cc1)c1ccc(OCCO)cc1

>  <composite z-score>
0.82

$$$$

Next:
Task: // query composite z-score value for entry Cc1ccc(S[C@]2(C(=O)NC(C)C)CC(=O)N(Cc3ccccc3Cl)[C@@H]2c2ccc(CO)cc2)cc1
Output: -0.452

* * *

Listing: composite z-score of selected molecules
assayed.system: Albumin (Bos taurus) (UniProt P02769)
Sequence (P02769 whole entry, looked up): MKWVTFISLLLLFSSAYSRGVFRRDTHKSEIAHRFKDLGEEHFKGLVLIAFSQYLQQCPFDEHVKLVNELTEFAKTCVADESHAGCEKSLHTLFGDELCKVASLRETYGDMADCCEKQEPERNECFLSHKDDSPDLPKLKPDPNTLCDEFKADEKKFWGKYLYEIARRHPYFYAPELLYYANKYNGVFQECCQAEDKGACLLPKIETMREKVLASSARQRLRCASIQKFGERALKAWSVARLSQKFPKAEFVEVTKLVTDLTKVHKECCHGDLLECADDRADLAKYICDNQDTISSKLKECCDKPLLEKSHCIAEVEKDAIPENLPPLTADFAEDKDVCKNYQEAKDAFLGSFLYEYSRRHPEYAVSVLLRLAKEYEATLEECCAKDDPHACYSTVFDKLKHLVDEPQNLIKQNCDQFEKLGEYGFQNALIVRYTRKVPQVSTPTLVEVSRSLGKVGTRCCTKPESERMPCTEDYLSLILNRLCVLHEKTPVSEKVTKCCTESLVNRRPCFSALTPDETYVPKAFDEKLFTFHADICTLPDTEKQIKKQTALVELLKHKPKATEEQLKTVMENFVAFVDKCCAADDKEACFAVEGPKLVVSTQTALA
run.description: bovine serum albumin binders on microarray, profiling panel, artefact control for SMM control protein annotation, biochemical, small-molecule microarray, Alexa647 label, 635/667 nm fluorescence (AID 1118);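 note: score merges 667 nm emission intensity and signal-to-noise per printed compound spot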
stated.conditions: BSA-A647 binding, fluorescence 635 nm, higher = more signal

Task: // query composite z-score value for entry C=CC1c2cc(O)c(OC)cc2CCN1Cc1ccc([N+](=O)[O-])o1 (configuration not stated)
Output: 0.576

Task: // query composite z-score value for entry CO[C@H]1O[C@H](CO)[C@@H](OC(=O)Nc2ccc(C#N)cc2)[C@@H]2OC(=O)[C@H](Cc3cccc(Br)c3)C/C=C/C[C@@H](Cc3cccc(Br)c3)C(=O)O[C@@H]12
Output: 0.348

Task: // query composite z-score value for entry CCOC(=O)C1=C[C@@H](C(C)(C)C)N(S(=O)(=O)c2ccc(C)cc2)[C@H]1c1ccc(C)cc1
Output: 0.804

Task: // query composite z-score value for entry COC(=O)[C@@]1(Cc2ccc(OC)cc2)[C@H]2c3cc(C(=O)N4CCCC4)n(Cc4ccc(S(C)(=O)=O)cc4)c3C[C@H]2CN1C(=O)c1ccccc1
Output: 1.03

Task: // query composite z-score value for entry CN(C)CCCCNC(=O)[C@H]1C[C@H]2C(=O)N[C@@H](CCCC[N+](C)(C)C)C(=O)N2[C@H]1c1ccc(O)cc1
Output: -0.165

* * *

Listing: z-score of selected compounds
run.description: mitochondrial membrane potential change in A549 cells, profiling panel, cell-based, JC-1 fluorescence, basal, 24 h, 100 nL (AID 1138);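 note: A549 lung adenocarcinoma cells under basal conditions with no added stimulus; test concentration not given here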
stated.conditions: higher = more signal

>  <compound>
COCCOC(=O)N1C(=O)[C@@]2(c3cc(C#CCNC(N)=O)ccc31)[C@H](c1ccc(O)cc1)N1[C@H](c3ccccc3)[C@H](c3ccccc3)OC(=O)[C@H]1[C@@H]2C(=O)N1CCN(c2ncccn2)CC1

>  <measurement.kind>
z-score

>  <result>
-1.91

$$$$
>  <compound>
CC(C)c1ccc(NN2C(C(O)Cc3ccccc3)C=CC3C(=O)N(c4ccccc4)C(=O)C32)cc1 (stereo unspecified)

>  <measurement.kind>
z-score

>  <result>
-1.24

$$$$

Task: // query z-score value for entry O=C1c2ccccc2[C@](Cc2ccccc2I)(C(=O)NC2CC2)[C@H](c2ccc(CO)cc2)N1Cc1ccccc1C(F)(F)F
Output: -0.254

Task: // query z-score value for entry O=C1O[C@H](c2ccccc2)[C@H](c2ccccc2)N2[C@H]1[C@@H](C(=O)Nc1nc3ccccc3s1)[C@]1(C(=O)Nc3ccc(C#CC4=CCCCC4)cc31)[C@H]2c1ccc(O)cc1
Output: -1.83

Task: // query z-score value for entry COCCOC(=O)N1C(=O)[C@@]2(c3cc(C#CC4=CCCCC4)ccc31)[C@H](c1ccc(O)cc1)N1[C@H](c3ccccc3)[C@H](c3ccccc3)OC(=O)[C@H]1[C@@H]2C(=O)NC[C@H](O)c1ccccc1
Output: -1.14

Task: // query z-score value for entry COCCOC(=O)N1C(=O)[C@@]2(c3ccccc31)[C@H](c1ccccc1OCCO)N1[C@H](c3ccccc3)[C@H](c3ccccc3)OC(=O)[C@H]1[C@@H]2C(=O)N1CCCCCCC1
Output: -0.0428
